Entries and their GI50 values follow.
Tested on: SK-MEL-5
Test: NCI tumour cell line growth inhibition, 48 h
Active and inactive are the calls of the source. Cut-off read from the data, not from the text of the source: active = GI50 up to about 1.1 µM and inactive = higher.

INSERT INTO assay_data (compound, experimental_target, observed_result) VALUES
  ('O=C1c2ccccc2C(=O)N1CC(O)COc1cccc2ccccc12 (configuration not stated)', 'SK-MEL-5', '63.5 µM (inactive)');

Please turn your attention to the following entry.
stdin: Dear colleague, I am looking for the recorded GI50 of the following compound: CCC(C)C1NC(=O)C2CCCN2C(=O)C(CC2CO2)OC(=O)CCNC(=O)C(C)N(C)C(=O)C(C(C)C)N(C)C1=O (configuration not stated)
stdout: < 0.0169 µM (active)
